System: RPMI-7951
Test: Monolayer growth inhibition assay (MTT/MTS), RPMI-7951
Type: cell-based
Conditions: Homo sapiens, 72 h; RPMI-7951 melanoma cell line, treated for 3 days; read-out: IC50 [nM] Measure of Cell Growth Inhibition
endpoint label: IC50 (nM)

Cc1[nH]c2ccccc2c1CCNCc1ccc(/C=C/C(=O)NO)cc1 :: 27.6

---

System: SK-MEL-28
Test: Monolayer growth inhibition assay (MTT/MTS), SK-MEL-28
Type: cell-based
Details: Homo sapiens, 72 h; SK-MEL-28 melanoma cell line, treated for 3 days; read-out: IC50 [nM] Measure of Cell Growth Inhibition
endpoint label: IC50 (nM)

Cc1[nH]c2ccccc2c1CCNCc1ccc(/C=C/C(=O)NO)cc1 :: 43.1
